# maps each entry to its kd
tgt: T1, monomeric human PRLR (hPRLR.mmh; SEQ ID NO:401) (Homo sapiens, UniProt P16471)
T1 construct: soluble monomeric (hPRLR.mmh); mmh (myc-myc-hexahistidine) (C)
test-details: Surface plasmon resonance (Biacore T200), antibody-capture format
Type: binding
run-conditions: 25° C., analyte hPRLR.mmh
// note: answer is a bare numeric in s⁻¹

Consider the reported kd for these molecules:
molecule	value-observed
H1H6774P: fully human anti-PRLR antibody, human IgG1 Fc; HCVR/LCVR SEQ ID NOs 34/42 (antibody, V domains shown) VH: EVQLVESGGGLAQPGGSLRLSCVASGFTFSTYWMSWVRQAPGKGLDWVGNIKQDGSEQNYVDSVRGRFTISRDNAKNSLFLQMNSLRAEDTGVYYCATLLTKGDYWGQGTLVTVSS VL: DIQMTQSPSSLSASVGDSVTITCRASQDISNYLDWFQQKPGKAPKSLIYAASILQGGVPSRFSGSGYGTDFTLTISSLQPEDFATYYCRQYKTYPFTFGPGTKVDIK	0.000818
H1H6975N: anti-PRLR antibody, human IgG1 Fc form of H2M6975N of Table 1; HCVR/LCVR SEQ ID NOs 370/378 (antibody, V domains shown, human IgG1 Fc) VH: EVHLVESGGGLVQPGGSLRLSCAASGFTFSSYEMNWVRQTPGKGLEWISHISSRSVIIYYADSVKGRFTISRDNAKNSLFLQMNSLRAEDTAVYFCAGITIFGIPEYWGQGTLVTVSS VL: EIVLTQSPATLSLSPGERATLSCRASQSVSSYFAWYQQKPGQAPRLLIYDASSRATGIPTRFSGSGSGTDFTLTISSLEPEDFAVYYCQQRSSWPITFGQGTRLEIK	7.35e-05
H1H6797P: fully human anti-PRLR antibody, human IgG1 Fc; HCVR/LCVR SEQ ID NOs 178/186 (antibody, V domains shown) VH: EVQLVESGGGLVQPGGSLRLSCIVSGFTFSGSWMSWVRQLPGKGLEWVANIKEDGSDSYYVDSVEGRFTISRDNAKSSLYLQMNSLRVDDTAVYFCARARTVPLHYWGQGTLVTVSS VL: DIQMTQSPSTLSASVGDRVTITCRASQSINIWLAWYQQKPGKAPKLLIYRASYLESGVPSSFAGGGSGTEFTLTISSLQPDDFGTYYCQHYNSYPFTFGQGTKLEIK	0.00196

Please examine the following record next.
Task: Annotate the molecule H1H6804P: fully human anti-PRLR antibody, human IgG1 Fc; HCVR/LCVR SEQ ID NOs 242/250 (antibody, V domains shown) VH: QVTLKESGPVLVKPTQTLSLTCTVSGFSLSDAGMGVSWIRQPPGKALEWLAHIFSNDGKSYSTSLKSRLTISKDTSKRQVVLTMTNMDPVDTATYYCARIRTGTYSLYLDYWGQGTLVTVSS VL: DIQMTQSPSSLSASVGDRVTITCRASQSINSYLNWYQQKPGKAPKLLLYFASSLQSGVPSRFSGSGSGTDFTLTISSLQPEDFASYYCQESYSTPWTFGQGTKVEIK with its measured kd.
Result: 0.000634

Data credit: patent US10925971B2
